target: hCA-IX (Homo sapiens)
readout-label: IC50 (nM)

a = CCCCNc1cc(C(=O)N2N=CCC2=O)cc(S(N)(=O)=O)c1Oc1ccccc1
b = CCCCNc1cc(C(=O)NN)cc(S(N)(=O)=O)c1Oc1ccccc1 [Compound 3, bumetanide hydrazide]
Kindly identify the item with the lower IC50 figure among these two: a and b Your answer should be the label attached to the chosen record.
b
(b: 7.87 nM, a: 16.4 nM)

----------
target: hCA-IX (Homo sapiens, UniProt Q16790); assay: colorimetric CA-inhibition assay based on CA-esterase activity, hCA-IX; conditions: ratio of IC50 values for isozyme CA-II relative to CA-IX
readout-label: Selectivity Ratio II/IX

CCCCNc1cc(C(=O)N/N=c2\scc(-c3ccc(C)cc3)n2-c2ccccc2)cc(S(N)(=O)=O)c1Oc1ccccc1    101.6
CCCCNc1cc(C(=O)NNC(=S)Nc2ccc(Br)cc2)cc(S(N)(=O)=O)c1Oc1ccccc1    118.9
CCCCNc1cc(C(=O)NNC(=S)Nc2ccccc2)cc(S(N)(=O)=O)c1Oc1ccccc1    88.6

a = C=CCn1c(-c2ccc(C)cc2)cs/c1=N\NC(=O)c1cc(NCCCC)c(Oc2ccccc2)c(S(N)(=O)=O)c1
b = C=CCn1c(-c2cc(NCCCC)c(Oc3ccccc3)c(S(N)(=O)=O)c2)n[nH]c1=S
Kindly identify the item with the lower Selectivity Ratio II/IX figure among these two: a and b Your answer should be the label attached to the chosen record.
b

I = CCCCNc1cc(C(=O)n2nc(C)cc2-c2ccccc2)cc(S(N)(=O)=O)c1Oc1ccccc1
II = CCCCNc1cc(-c2n[nH]c(=S)n2-c2ccccc2)cc(S(N)(=O)=O)c1Oc1ccccc1
// compare measured Selectivity Ratio II/IX, left I , right II , return larger Your answer should be the label attached to the chosen record.
II

----------
Recorded IC50 values (hCA-II (Homo sapiens, UniProt P00918)) are given below.
readout-label: IC50 (µM)

CCCCNc1cc(-c2n[nH]c(=S)o2)cc(S(N)(=O)=O)c1Oc1ccccc1 [Compound 5]    0.486
CCCCNc1cc(C(=O)NN)cc(S(N)(=O)=O)c1Oc1ccccc1 [Compound 3, bumetanide hydrazide]    1.61
CCCCNc1cc(C(=O)N/N=c2\scc(-c3ccc(C)cc3)n2-c2ccccc2)cc(S(N)(=O)=O)c1Oc1ccccc1 [Compound 8b]    1.32

a = CCCCNc1cc(C(=O)N2N=CCC2=O)cc(S(N)(=O)=O)c1Oc1ccccc1 [Compound 4]
b = CCCCNc1cc(C(=O)N/N=c2\scc(-c3ccc(OC)cc3)n2-c2ccc(Br)cc2)cc(S(N)(=O)=O)c1Oc1ccccc1 [Compound 8i]
c = CCCCNc1cc(C(=O)NNC(=S)Nc2ccc(Br)cc2)cc(S(N)(=O)=O)c1Oc1ccccc1 [Compound 7c]
Output the entries ranked by IC50 from maximum down to minimum. List each label, following the requested order.
c, a, b

----------
Recorded pIC50 values (hCA-II (Homo sapiens, UniProt P00918)) are given below.
pIC50: −log10 of the molar value.
readout-label: pIC50

// known answers, use as guide
CCCCNc1cc(C(=O)N/N=c2\scc(-c3ccc(Cl)cc3)n2-c2ccccc2)cc(S(N)(=O)=O)c1Oc1ccccc1    6.60
C=CCn1c(-c2ccc(C)cc2)cs/c1=N\NC(=O)c1cc(NCCCC)c(Oc2ccccc2)c(S(N)(=O)=O)c1    6.29

a = CCCCNc1cc(-c2n[nH]c(=S)n2-c2ccccc2)cc(S(N)(=O)=O)c1Oc1ccccc1
b = C=CCn1c(-c2cc(NCCCC)c(Oc3ccccc3)c(S(N)(=O)=O)c2)n[nH]c1=S
c = CCCCNc1cc(C(=O)OC)cc(S(N)(=O)=O)c1Oc1ccccc1 [Compound 2, bumetanide methyl ester]
Put the items in order so that reported pIC50 rises from first to last. List each label, following the requested order.
a, c, b
(a: 5.39, c: 6.18, b: 6.69)

a = CCCCNc1cc(C(=O)N/N=c2\scc(-c3ccc(Cl)cc3)n2-c2ccc(Br)cc2)cc(S(N)(=O)=O)c1Oc1ccccc1
b = CCCCNc1cc(C(=O)NNC(=S)Nc2ccccc2)cc(S(N)(=O)=O)c1Oc1ccccc1
// compare measured pIC50, left a , right b , return larger Your answer should be the label attached to the chosen record.
a
(a: 6.11, b: 5.80)

----------
target: hCA-IX (Homo sapiens); test: colorimetric CA-inhibition assay based on CA-esterase activity, hCA-IX; details: ratio of IC50 values for isozyme CA-II relative to CA-IX
readout-label: Selectivity Ratio II/IX

CCCCNc1cc(C(=O)NN)cc(S(N)(=O)=O)c1Oc1ccccc1 [Compound 3, bumetanide hydrazide]    205.1
CCCCNc1cc(C(=O)N/N=c2\scc(-c3ccc(Cl)cc3)n2-c2ccccc2)cc(S(N)(=O)=O)c1Oc1ccccc1    38.6
C=CCn1c(-c2ccc(OC)cc2)cs/c1=N\NC(=O)c1cc(NCCCC)c(Oc2ccccc2)c(S(N)(=O)=O)c1    74.5
CCCCNc1cc(C(=O)N/N=c2\scc(-c3ccc(OC)cc3)n2-c2ccccc2)cc(S(N)(=O)=O)c1Oc1ccccc1    37.5
CCCCNc1cc(C(=O)N2N=CCC2=O)cc(S(N)(=O)=O)c1Oc1ccccc1    63.9

a = CCCCNc1cc(C(=O)OC)cc(S(N)(=O)=O)c1Oc1ccccc1 [Compound 2, bumetanide methyl ester]
b = C=CCn1c(-c2ccc(Cl)cc2)cs/c1=N\NC(=O)c1cc(NCCCC)c(Oc2ccccc2)c(S(N)(=O)=O)c1
c = CCCCNc1cc(C(=O)N/N=c2\scc(-c3ccc(Cl)cc3)n2-c2ccc(Br)cc2)cc(S(N)(=O)=O)c1Oc1ccccc1
d = CCCCNc1cc(C(=O)N/N=c2\scc(-c3ccc(C)cc3)n2-c2ccc(Br)cc2)cc(S(N)(=O)=O)c1Oc1ccccc1
Put the items in order so that reported Selectivity Ratio II/IX rises from first to last. List each label, following the requested order.
d, a, c, b
(d: 14.5, a: 28.1, c: 109.2, b: 804.6)

P = C=CCNC(=S)NNC(=O)c1cc(NCCCC)c(Oc2ccccc2)c(S(N)(=O)=O)c1
Q = CCCCNc1cc(-c2n[nH]c(=S)o2)cc(S(N)(=O)=O)c1Oc1ccccc1
Kindly identify the item with the lower Selectivity Ratio II/IX figure among these two: P and Q Your answer should be the label attached to the chosen record.
Q
(Q: 39.0, P: 93.4)

1 = CCCCNc1cc(-c2n[nH]c(=S)n2-c2ccc(Br)cc2)cc(S(N)(=O)=O)c1Oc1ccccc1
2 = CCCCNc1cc(C(=O)N/N=c2\scc(-c3ccc(OC)cc3)n2-c2ccc(Br)cc2)cc(S(N)(=O)=O)c1Oc1ccccc1
// compare measured Selectivity Ratio II/IX, left 1 , right 2 , return larger Your answer should be the label attached to the chosen record.
1

----------
pIC50: −log10 of the molar value.
Recorded pIC50 values (hCA-IX (Homo sapiens, UniProt Q16790)) are given below.
readout-label: pIC50

// known answers, use as guide
CCCCNc1cc(-c2n[nH]c(=S)n2-c2ccc(Br)cc2)cc(S(N)(=O)=O)c1Oc1ccccc1 [Compound 9c]    8.35
CCCCNc1cc(C(=O)N/N=c2\scc(-c3ccc(Cl)cc3)n2-c2ccccc2)cc(S(N)(=O)=O)c1Oc1ccccc1 [Compound 8a]    8.19

I = CCCCNc1cc(-c2n[nH]c(=S)n2-c2ccccc2)cc(S(N)(=O)=O)c1Oc1ccccc1 [Compound 9a]
II = CCCCNc1cc(C(=O)N/N=c2\scc(-c3ccc(OC)cc3)n2-c2ccccc2)cc(S(N)(=O)=O)c1Oc1ccccc1 [Compound 8c]
III = CCCCNc1cc(C(=O)OC)cc(S(N)(=O)=O)c1Oc1ccccc1 [Compound 2, bumetanide methyl ester]
Output the entries ranked by pIC50 from maximum down to minimum. List each label, following the requested order.
I, II, III
